- TARGET: LZK (Homo sapiens, UniProt O43283)
- Construct: 10 nM LZK, catalytic domain, Carna Biosiences in assay buffer; purchased Carna Biosciences ('Carna Biosiences' [sic])
- PROTOCOL_SUMMARY: LZK biochemical assay (TR-FRET, MKK7 phosphorylation)
pIC50: −log10 of the molar value.
MEASUREMENT_KIND: pIC50

(1) CC(C)C(c1ccc(C(F)(F)F)nc1)n1cc(-c2cc(-c3ccc(C(F)(F)F)nc3)c3nc(N)nn3c2)cn1 (single isomer, unassigned) [II-42]
(2) Nc1nc2cc(-c3cnn(C(c4ccc(C(F)(F)F)nc4)C4CCOCC4)c3)cc(-c3ccc(=O)n(C(F)F)c3)n2n1 (stereo not drawn) [II-182]
(3) CS(=O)(=O)c1cccc(-c2cc(-c3cnn(C(c4ccc(C(F)(F)F)nc4)C4CCOCC4)c3)cn3nc(N)nc23)c1 (single isomer, unassigned) [II-14]
Please rank these compounds by pIC50 in descending order. API: response body holds the labels in the requested order.
3, 2, 1
(3: 8.89, 2: 8.19, 1: 7.28)

====

- TARGET: LZK (Homo sapiens, UniProt O43283)
- Construct: 10 nM LZK, catalytic domain, Carna Biosiences in assay buffer; purchased Carna Biosciences ('Carna Biosiences' [sic])
- PROTOCOL_SUMMARY: LZK biochemical assay (TR-FRET, MKK7 phosphorylation)
- DETAILS: LZK catalytic domain, MKK7 substrate, 15 μM ATP
MEASUREMENT_KIND: IC50 (µM)

Worked cases, IC50 given:
Which IC50 value is on record for Nc1nc2cc(-c3cnn(C(c4ccc(C(F)(F)F)nc4)C4CCOCC4)c3)cc(C(=O)N[C@H]3CCOC3)n2n1 (single isomer, unassigned) [Example I-185] ?
0.0023

Which IC50 value is on record for CC[C@H](C)NC(=O)c1cc(-c2cnn(Cc3cccc4cn[nH]c34)c2)cn2nc(N)nc12 (single isomer, unassigned) ?
0.056

Which IC50 value is on record for CCC(c1ccc(Cl)s1)n1cc(-c2cc(C(=O)N[C@@H](C)CC)c3nc(N)nn3c2)cn1 (single isomer, unassigned) [Example I-130] ?
0.1

Which IC50 value is on record for CC[C@H](C)NC(=O)c1cc(-c2cnn(C(c3ccc(OCC(F)(F)F)nc3)C(C)C)c2)cn2nc(N)nc12 (single isomer, unassigned) [Example I-90] ?
0.034

Which IC50 value is on record for CC[C@H](C)NC(=O)c1cc(-c2cnn(C(c3cncc(Cl)c3)C(C)C)c2)cn2nc(N)nc12 (mixture of isomers) [Example I-61] ?
0.0033

Which IC50 value is on record for CC[C@H](C)NC(=O)c1cc(-c2cnn(C(c3ccc(C(F)(F)F)nc3)C(C)C)c2)cn2nc(N)nc12 (single isomer, unassigned) [Example I-74] ?
0.016

(1) CC[C@H](C)NC(=O)c1cc(-c2cnn(C(c3ccc(C(F)(F)F)nc3)C3CC3)c2)cc2nc(N)nn12 (mixture of isomers) [Example I-107]
(2) CC[C@H](C)NC(=O)c1cc(-c2cnn(C(c3ccc(F)cc3)C(C)C)c2)cn2nc(N)nc12 (single isomer, unassigned) [Example I-44]
Sorting by IC50 in descending order, would 1 or 2 appear first? Respond with the label that goes with your answer.
2

(P) CC[C@H](C)NC(=O)c1cc(-c2cnn([C@H](c3ccc(C(F)(F)F)nc3)C3CCN(C(C)=O)CC3)c2)cn2nc(N)nc12
(Q) CCC(c1ccc(OCC(F)(F)F)nc1)n1cc(-c2cc(C(=O)N[C@@H](C)CC)n3nc(N)nc3c2)cn1 (single isomer, unassigned) [Example I-114]
Sorting by IC50 in descending order, would P or Q appear first? Respond with the label that goes with your answer.
Q
(Q: 0.13 µM, P: 0.0012 µM)

(P) CCC(c1ccc(OCC(F)(F)F)nc1)n1cc(-c2cc(C(=O)N[C@H]3CCOC3)n3nc(N)nc3c2)cn1 (single isomer, unassigned) [Example I-187]
(Q) CC[C@H](C)NC(=O)c1cc(-c2cnn(C(c3ccccc3)C3(C)CC3)c2)cn2nc(N)nc12 (mixture of isomers) [Example I-28]
Look at P and Q . Which one has the lower recorded IC50 number? Respond with the label that goes with your answer.
P

====

- TARGET: LZK (Homo sapiens, UniProt O43283)
- Construct: 10 nM LZK, catalytic domain, Carna Biosiences in assay buffer; purchased Carna Biosciences ('Carna Biosiences' [sic])
- Sequence (O43283 168-409 limits assumed): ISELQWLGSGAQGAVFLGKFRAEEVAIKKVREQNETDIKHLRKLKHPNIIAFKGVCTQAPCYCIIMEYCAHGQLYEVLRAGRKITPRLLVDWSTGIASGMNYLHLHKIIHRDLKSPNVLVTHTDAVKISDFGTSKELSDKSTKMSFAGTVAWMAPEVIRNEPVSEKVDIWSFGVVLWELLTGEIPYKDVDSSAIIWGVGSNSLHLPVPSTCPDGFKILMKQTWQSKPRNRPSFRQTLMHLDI
- PROTOCOL_SUMMARY: LZK biochemical assay (TR-FRET, MKK7 phosphorylation)
- Experimental: LZK assay is a biochemical assay format designed to screen for inhibitors of LZK. Enzymatic activity of LZK is measured by monitoring phosphorylation of the physiological substrate MKK7 (MAP2K7, Dual specificity mitogen-activated protein kinase kinase 7). Phosphorylation is detected by a TR-FRET system whereby His-tagged MKK7 is labeled by a XL665-labeled anti-His antibody (FRET acceptor, emission 665 nm). […]
MEASUREMENT_KIND: IC50 (nM)

Worked cases, IC50 given:
Which IC50 value is on record for CC(C)C(c1ccc(C(F)F)nc1)n1cc(-c2cc(-c3ccc(OC(F)F)nc3)n3nc(N)nc3c2)cn1 (racemic) [II-49] ?
84

Which IC50 value is on record for Nc1nc2cc(-c3cnn(C4CCN(C5COC5)CC4)c3)cc(-c3ccc(C4CC4)nc3)n2n1 [II-83] ?
110

Which IC50 value is on record for Nc1nc2cc(-c3cnn(C(c4ccccc4)C4CCNCC4)c3)cc(-c3cnn(CC(F)(F)F)c3)n2n1 (centres unmarked) [II-152] ?
16

Which IC50 value is on record for CC(C)C(c1ccc(C(F)F)nc1)n1cc(-c2cc(-c3ccc(C4CC4)nc3)n3nc(N)nc3c2)cn1 (racemic) [II-52] ?
19

Which IC50 value is on record for COc1cc([C@H](C(C)C)n2cc(-c3cc(-c4cnn(CC(F)(F)F)c4)n4nc(N)nc4c3)cn2)ccn1 [II-138] ?
29

(P) CC[C@@H](c1ccccc1)n1cc(-c2cc(-c3cnn(C(C)C(F)(F)F)c3)c3nc(N)nn3c2)cn1 (mixture of isomers) [II-94]
(Q) CCS(=O)(=O)c1cccc(-c2cc(-c3cnn(C(c4ccc(C(F)(F)F)nc4)C4CCOCC4)c3)cn3nc(N)nc23)c1 (single isomer, unassigned) [II-17]
Sorting by IC50 in descending order, would P or Q appear first? Respond with the label that goes with your answer.
P

====

- TARGET: DLK (Homo sapiens)
- Construct: 10 nM DLK, catalytic domain, Carna Biosiences; purchased Carna Biosciences ('Carna Biosiences' [sic])
- Sequence (Q12852 125-366 limits assumed): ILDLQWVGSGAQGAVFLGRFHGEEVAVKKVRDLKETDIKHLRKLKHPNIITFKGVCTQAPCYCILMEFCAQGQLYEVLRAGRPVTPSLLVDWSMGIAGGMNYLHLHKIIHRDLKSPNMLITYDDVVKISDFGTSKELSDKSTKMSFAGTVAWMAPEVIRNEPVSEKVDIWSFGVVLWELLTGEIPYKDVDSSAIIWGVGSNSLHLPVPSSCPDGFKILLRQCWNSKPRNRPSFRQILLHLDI
- PROTOCOL_SUMMARY: DLK biochemical assay (TR-FRET, MKK7 phosphorylation)
MEASUREMENT_KIND: IC50 (nM)

Worked cases, IC50 given:
Which IC50 value is on record for CCS(=O)(=O)c1cccc(-c2cc(-c3cnn(C(c4ccc(C(F)(F)F)nc4)C4CCOCC4)c3)cn3nc(N)nc23)c1 (single isomer, unassigned) [II-17] ?
2.1

Which IC50 value is on record for Nc1nc2cc(-c3cnn(C(c4ccc(C(F)(F)F)nc4)C4CCOCC4)c3)cc(-c3ccnc(C(F)(F)F)c3)n2n1 (single isomer, unassigned) [II-35] ?
63

Which IC50 value is on record for Nc1nc2cc(-c3cnn(C(c4ccccc4)C4CCOCC4)c3)cc(-c3cnn(CC(F)(F)F)c3)n2n1 (single isomer, unassigned) [II-147] ?
2.3

(A) CCc1cnc(-c2cc(-c3cnn(Cc4ccccc4)c3)cc3nc(N)nn23)cn1
(B) Nc1nc2c(-c3cn(CC(F)(F)F)c(=O)cn3)cc(-c3cnn(C(c4ccc(C(F)(F)F)nc4)C4CCOCC4)c3)cn2n1 (single isomer, unassigned) [II-168]
(C) CC(C)C(c1ccc(C(F)(F)F)nc1)n1cc(-c2cc(-c3ccc(C4(O)CCC4)nc3)n3nc(N)nc3c2)cn1 (single isomer, unassigned) [II-81]
Order field: IC50 | Direction: descending (largest first) API: response body holds the labels in the requested order.
A, B, C

====

- TARGET: LZK (Homo sapiens, UniProt O43283)
- Construct: 10 nM LZK, catalytic domain, Carna Biosiences in assay buffer; purchased Carna Biosciences ('Carna Biosiences' [sic])
- Sequence (O43283 168-409 limits assumed): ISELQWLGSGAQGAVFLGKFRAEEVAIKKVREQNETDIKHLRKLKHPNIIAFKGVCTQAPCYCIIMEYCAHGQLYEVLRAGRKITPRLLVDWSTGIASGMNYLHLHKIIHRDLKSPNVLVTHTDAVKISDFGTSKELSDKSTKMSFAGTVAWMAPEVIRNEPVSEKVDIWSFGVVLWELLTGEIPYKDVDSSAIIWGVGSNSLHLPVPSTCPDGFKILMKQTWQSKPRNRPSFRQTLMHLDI
- PROTOCOL_SUMMARY: LZK biochemical assay (TR-FRET, MKK7 phosphorylation)
- DETAILS: LZK catalytic domain, MKK7 substrate, 15 μM ATP
MEASUREMENT_KIND: IC50 (nM)

(a) CC[C@H](C)NC(=O)c1cc(-c2cnn(C(CC(F)(F)F)c3ccccc3)c2)cn2nc(N)nc12 (single isomer, unassigned) [Example I-39]
(b) CC(CF)NC(=O)c1cc(-c2cnn(C(c3ccccc3)C(C)C)c2)cn2nc(N)nc12 (single isomer, unassigned) [Example I-140]
(c) CCC(c1ccc(C(F)(F)F)nc1)n1cc(-c2cc(C(=O)N[C@@H](C)CC)c3nc(N)nn3c2)cn1 (mixture of isomers)
Could you put the items above in increasing order of their IC50? API: response body holds the labels in the requested order.
c, b, a
